Catalogue of compounds with associated selectivity ratio at 0.5 h
experiment: Protective index, ratio of TD50 for neurotoxicity against ip dosed Kunming mouse assessed as time remained in rod measured at 0.5 hrs by rotarod test to ED50 for […] activity in ip dosed Kunming mouse assessed as reduction in formalin-induced paw licking administered 0.5 hrs before formalin stimulation; type: toxicity, organism-based; conditions: in vivo, read-out: PI
QUANTITY NAME: selectivity ratio at 0.5 h

INSERT INTO measurements (entry_smiles, quantity_name, qual, observed) VALUES
  ('COc1cc(OC)c(OC)cc1/C=C/COC(=O)/C=C/c1cc(OC)c(OC)cc1OC', 'selectivity ratio at 0.5 h', '=', 12.5),
  ('COc1cccc(/C=C/C(=O)OC/C=C/c2cc(OC)c(OC)cc2OC)c1', 'selectivity ratio at 0.5 h', '>', 8.9),
  ('COc1cc(OC)c(OC)cc1/C=C/COC(=O)/C=C/c1ccc(F)cc1', 'selectivity ratio at 0.5 h', '=', 23),
  ('COc1cc(OC)c(OC)cc1/C=C/COC(=O)/C=C/c1cccc(Br)c1', 'selectivity ratio at 0.5 h', '>', 8.9);
